target: UniProt:P23977; experiment: Inhibition of [3H]WIN-35428 binding to the dopamine transporter in rat brain; assay type: tissue-based
Sequence (P23977 whole entry): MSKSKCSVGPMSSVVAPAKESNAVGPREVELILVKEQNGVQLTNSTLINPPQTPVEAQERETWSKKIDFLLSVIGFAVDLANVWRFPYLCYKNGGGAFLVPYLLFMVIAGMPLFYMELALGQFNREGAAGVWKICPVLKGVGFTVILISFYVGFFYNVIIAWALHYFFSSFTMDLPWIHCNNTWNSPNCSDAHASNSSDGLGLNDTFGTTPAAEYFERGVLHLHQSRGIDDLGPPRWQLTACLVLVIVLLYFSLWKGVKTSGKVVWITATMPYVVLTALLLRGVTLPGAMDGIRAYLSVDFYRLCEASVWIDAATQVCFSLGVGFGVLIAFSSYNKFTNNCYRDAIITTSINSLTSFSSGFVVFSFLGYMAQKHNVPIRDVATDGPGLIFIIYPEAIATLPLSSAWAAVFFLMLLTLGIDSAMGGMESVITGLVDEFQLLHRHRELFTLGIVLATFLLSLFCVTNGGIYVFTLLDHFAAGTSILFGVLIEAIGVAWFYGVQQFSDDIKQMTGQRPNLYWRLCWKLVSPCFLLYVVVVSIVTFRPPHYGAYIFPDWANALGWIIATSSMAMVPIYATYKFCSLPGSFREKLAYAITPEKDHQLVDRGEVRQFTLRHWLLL
Answer each item with its documented pIC50.
Note on units: pIC50 is unitless, being -log10 of a concentration expressed in mol/L.

Sure, the documented pIC50 for OC1(c2ccc(I)cc2)c2ccccc2C2=NCCN21 (stereo not given) is 7.76

Sure, the documented pIC50 for OC1(c2ccc(Br)cc2)c2ccccc2C2=NCCN21 (stereo not given) is 8.59

Sure, the documented pIC50 for OC1(c2ccc(F)cc2)c2cc(Cl)ccc2C2=NCCN21 (stereo not given) is 7.28

Sure, the documented pIC50 for OC1(c2ccc(Cl)c(Cl)c2)c2ccccc2C2=NCCCCN21 (stereo not given) is 8.77

Sure, the documented pIC50 for OC1(c2ccc(Cl)cc2Cl)c2ccccc2C2=NCCN21 (stereo not given) is 7.12

Sure, the documented pIC50 for OC1(c2ccccc2)c2ccccc2C2=NCCN21 (stereo not given) is 7.18

Sure, the documented pIC50 for OC1(c2ccc(Cl)cc2)c2cc(Cl)c(Cl)cc2C2=NCCN21 (stereo not given) is 7.87

Sure, the documented pIC50 for OC1(c2ccccc2Cl)c2ccccc2C2=NCCN21 (stereo not given) is 6.53

Sure, the documented pIC50 for OC1(c2cccc(Cl)c2)c2ccccc2C2=NCCCN21 (stereo not given) is 9.00

Sure, the documented pIC50 for OC1(c2ccc(F)cc2)c2ccccc2C2=NCCCN21 (stereo not given) is 8.49

Sure, the documented pIC50 for OC1(c2cccc(Cl)c2)c2ccccc2C2=NCCN21 (stereo not given) is 8.37

Sure, the documented pIC50 for OC1(c2ccc(Cl)c(Cl)c2)c2ccccc2C2=NCCN21 (stereo not given) is 8.60

Sure, the documented pIC50 for OC1(c2ccccc2F)c2ccccc2C2=NCCCN21 (stereo not given) is 7.63

Sure, the documented pIC50 for OC1(c2ccc(Cl)cc2)c2ccccc2C2=NCCCN21 (stereo not given) is 8.77

Sure, the documented pIC50 for OC1(c2ccc(Cl)cc2)c2ccccc2C2=NCCCCN21 (stereo not given) is 8.82

Sure, the documented pIC50 for OC1(c2ccccc2)c2cc(F)ccc2C2=NCCN21 (stereo not given) is 7.53

Sure, the documented pIC50 for OC1(c2ccccc2)c2ccccc2C2=NCCCN21 (stereo not given) is 8.24

Sure, the documented pIC50 for OC1(c2ccc(F)cc2)c2ccccc2C2=NCCN21 (stereo not given) is 7.88

Sure, the documented pIC50 for OC1(c2ccccc2)c2cc(Cl)ccc2C2=NCCN21 (stereo not given) is 7.06

Sure, the documented pIC50 for OC1(c2ccccc2)c2ccccc2C2=NCCCCN21 (stereo not given) is 8.23

Sure, the documented pIC50 for CC1(C)CN2C(=N1)c1ccccc1C2(O)c1ccc(Cl)cc1 (stereo not given) is 7.30

Sure, the documented pIC50 for OC1(c2cccc(F)c2)c2ccccc2C2=NCCCN21 (stereo not given) is 8.70

Sure, the documented pIC50 for CC1(C)CN=C2c3ccccc3C(O)(c3ccc(Cl)cc3)N2C1 (stereo not given) is 8.20

Sure, the documented pIC50 for OC1(c2ccccc2)c2c(Cl)cccc2C2=NCCN21 (stereo not given) is 7.24

Sure, the documented pIC50 for OC1(c2ccc(Cl)cc2)c2cc(F)ccc2C2=NCCN21 (stereo not given) is 8.19
